Tested on: MCF7 breast
Experiment: NCI-60 one-dose screen, 48 h (100 = growth as untreated, 0 = no growth, -100 = all killed)
Conditions: 10 µM unless noted
About 83,000 compounds went through this panel and 20% of them were active in at least one assay; those are over-represented in the sample as a whole.
Measured growth accompanies every entry in the list below.

MOLECULE	U	growth
O=C(COc1ccc(C2SCC(=O)N2c2ccc(F)cc2)cc1)c1ccccc1 (stereo not given)	%	81.7
CS(=O)(=O)c1nccc(-c2c(-c3ccc(F)c(OCCc4ccccc4)c3)nc3sccn23)n1	%	4.77
C=CCn1c(SCC(=O)Nc2cccc(C(=O)/C=C/c3ccc(Br)cc3)c2)nc2ccccc2c1=O	%	26.6
COc1ccc(/C=C/C(=O)c2nnn(-c3ccc(C(=O)O)cc3)c2C)cc1OC	%	86.3
COc1ccc2c(ccn2C(=O)N2c3ccccc3Sc3ccccc32)c1	%	29.6
COc1cc(/C=N/n2cnc3oc(-c4ccccc4)cc3c2=N)cc(CN2CCCCC2)c1O	%	-80.5
CCOC(=O)Nc1cccc(-n2cnc3cc(-c4ccc(O)cc4)ccc32)c1	%	18.2
O=C(NNc1nc2cc(F)c(F)cc2n2cccc12)c1ccncn1	%	6
O=C(NNc1nc2cc(F)ccc2n2cncc12)c1cnccn1	%	14.8
O=C(NCCNc1cc(-c2cn(-c3ccccc3)nc2-c2cccc(O)c2)ccn1)Nc1ccc(Cl)c(C(F)(F)F)c1	%	10.4

----------
Tested on: SF-539 CNS
Assay: NCI-60 one-dose screen, 48 h
Conditions: 10 µM unless noted
Description: Cells are grown in 96 well plates and exposed to the test compound for 48 hours. Compounds are tested at a single concentration, which is 10^-5 M for most compounds. The reported endpoint is percent growth (GI% or GIPRCNT), where numbers from 0 - 100% represent growth inhibition, and numbers from -100% - 0 represent cell death. For example, a value of 40 represents 60% growth inhibition. A value of 0 means no net growth occurred over the course of the experiment. […]
This is part of a sample that, as a whole, favours compounds with a hit. Of some 83,000 tested, about 20% had one in any assay. The source made the active and inactive calls. How the source made its calls: active means growth percent below 10; inactive means the rest.
Outcomes: t (active), f (inactive)

COMPOUND	CLASS_ASSIGNMENT
CCOC(=O)/C(F)=C/C1CC1CCc1cccc(C(F)(F)F)c1 (stereo not given)	f
Cc1ccc(-c2cc3nc(C(Cl)Cl)nc(-c4ccccc4)n3n2)cc1	f
NS(=O)(=O)c1ccc(Nc2nc(N/N=C/c3ccc([N+](=O)[O-])cc3)nc(Nc3ccccc3)n2)cc1	t
CN1C(=O)N(C)C2C1NN=c1s/c(=C\c3ccccn3)c(=O)n12 (stereo not given)	f
Cc1ccccc1NC1CC(=O)N(c2ccc(Cl)cc2Cl)C1=O (stereo not given)	f
CC1(C)CC[C@]2(C(=O)N3CCCNCC3)CC[C@]3(C)C(=CC[C@@H]4[C@@]5(C)CCC(=O)C(C)(C)[C@@H]5CC[C@]43C)[C@H]2C1	f
COc1cc2c3c(n(CCCNC4CCCC4)c(=O)c2cc1OC)-c1cc2c(cc1C3=O)OCO2	t
O=C(CCCCCCN1CC(=O)N2[C@@H](c3ccccc3)c3[nH]c4ccccc4c3C[C@H]2C1=O)NO	f
COc1ccc(-c2nc(SCC(C)C)nc(N/N=C\c3cccc([N+](=O)[O-])c3)c2C#N)cc1	t
O=C(NNc1nc2cc(F)c(F)cc2n2cccc12)c1ncccn1	f
O=C(/C=C1\C=CN(CCCCCCF)c2ccccc21)n1ccc2ccccc21	f
COc1ccc(Oc2ccc(C3CC(c4cc(OC)c(OC)c(OC)c4)=NN3C(C)=O)cc2)cc1 (stereo not given)	f
CSc1ccc(/C(=N/N=C(N)N)c2ccccc2)cc1	t
O=C1Nc2ccc(Cl)cc2/C1=C/c1ccc(OCc2ccc(F)cc2)cc1	f
COc1ccc(/C=N/Nc2nc(N/N=C/c3ccc(OC)cc3O)nc(N3CCOCC3)n2)c(O)c1	f
COc1cc(CNC(=O)Cc2ccccc2[N+](=O)[O-])ccc1OCC(=O)NO	f
Cc1ccccc1/C=C/c1nn2c(-c3ccoc3C)nnc2s1	f
CCCC(=O)NC(c1cccnc1)c1cc(C(C)=O)c2cccnc2c1O (stereo not given)	f
O=C1c2c(c3c4cc(Br)ccc4[nH]c3c3ccc4ccccc4c23)C(=O)N1CCN1CCNCC1	f
O=C1c2c(c3c4cccnc4[nH]c3c3ccc4ccccc4c23)C(=O)N1CCN1CCNCC1	f

----------
Measured growth values are reported for all entries that follow.
Tested on: NCI-H322M lung
Experiment: NCI-60 one-dose screen, 48 h (100 = growth as untreated, 0 = no growth, -100 = all killed)
Conditions: 10 µM unless noted
Compounds without any hit were thinned out: in the full panel of roughly 83,000, 20% have a hit. Calls of active or inactive are those of the source. Rule for the calls: active = growth percent below 10; inactive = the rest.

COMPOUND	growth
COc1ccc2oc3c4[nH]c5ccccc5c4c4c(c3c2c1)C(=O)N(O)C4=O	108% (inactive)
Clc1ccc(-c2nc3ccc(/C(=N\N=C\c4ccccc4)c4ccccc4)cc3[nH]2)cc1	92.4% (inactive)
CCn1c2ccc(/C=N/OCCCN(C)C)cc2c2cc(/C=N/OCCCN(C)C)ccc21	-11.6% (active)
CN1CCN(c2ccc(NC(=O)Nc3ccc4c(ccn4-c4cccc(C(N)=O)n4)c3)cc2C(F)(F)F)CC1	58.3% (inactive)
COc1ccc([C@H]2[C@H](O)C(=O)N2c2cc(OC)c(OC)c(OC)c2)cc1	47.9% (inactive)
Cc1nn(-c2ccccc2)cc1/C=N/Nc1nc(Nc2ccccc2)nc(Nc2ccc(S(N)(=O)=O)cc2)n1	9.11% (active)
CSc1nccc(-c2c(-c3ccc(F)c(OCc4ccc(F)cc4)c3)nc3sccn23)n1	91.3% (inactive)
Cc1ccc(-c2cc3nc(C(Cl)Cl)nc(-c4ccccc4)n3n2)cc1	74.3% (inactive)
CC(=O)C1=NN(c2ccc(Cl)cc2)C(=O)CN1C	101% (inactive)
CC1(C)CC[C@]2(C(=O)N3CCCN(CC#N)CC3)CC[C@]3(C)C(=CC[C@@H]4[C@@]5(C)CC[C@H](O)C(C)(C)[C@@H]5CC[C@]43C)[C@H]2C1	94.9% (inactive)
CCOC(=O)c1c(Nc2ccccc2)nn2c(-c3ccc(Br)cc3)ccnc12	79.1% (inactive)
CCCC(=O)NC(c1cccnc1)c1cc(C(C)=O)c2cccnc2c1O (stereo not drawn)	26.9% (inactive)
COc1cc(O)c2c(c1)/C=C/C[C@H](O)[C@H](O)C(=O)/C=C\C[C@H](C)OC2=O	64% (inactive)
CC1(C)CC[C@]2(C(=O)O)CC[C@]3(C)C(=CCC4[C@@]5(C)C[C@@H](O)[C@@H]6OC(c7ccccc7O)OC[C@@]6(C)C5CC[C@]43C)C2C1 (stereo partly drawn)	40.5% (inactive)
Cc1cn(-c2cc(NC(=O)c3cncc(C#Cc4cnc5ccc(O[C@@H]6CCOC6)nn45)c3)cc(C(F)(F)F)c2)cn1	-12.7% (active)
Cc1ccc(S(=O)(=O)N/N=C/c2cn(-c3ccc(F)cc3)nc2-c2ccc(S(C)(=O)=O)cc2)cc1	106% (inactive)
CSc1ccc(/C(=N/N=C(N)N)c2ccccc2)cc1	50.9% (inactive)
Cc1ccc(/C=C/CC(=O)Nc2ccc(C(=O)Nc3ccc(F)cc3N)cc2)cn1	74.4% (inactive)

----------
Tested on: MDA-MB-231 breast
Experiment: NCI-60 one-dose screen, 48 h (100 = growth as untreated, 0 = no growth, -100 = all killed)
Details: 10 µM unless noted
Compounds without any hit were thinned out: in the full panel of roughly 83,000, 20% have a hit. Calls of active or inactive are those of the source. Rule for the calls: active = growth percent below 10; inactive = the rest.
READOUT_LABEL: growth

COMPOUND	OBSERVED_RESULT
C/C(=C(/c1ccc(O)cc1)c1ccc(OCCN2CCCC2)cc1)c1ccc(Cl)cc1	40.9% (inactive)
COc1ccc(NS(=O)(=O)c2ccc(-c3cnc(C4CC4)o3)cc2)cc1Cl	41.9% (inactive)
Oc1ccc(CSc2nnc(-c3ccc(Br)cc3)n2-c2ccccc2)c2cccnc12	59.2% (inactive)
CC(C)SC1=NC(=C(C(=N1)NC2=ClC=CC=C2)C#N)C3=CC=CC=C3	78.9% (inactive)
Oc1ccc(CSc2nnc(-c3ccncc3)o2)c2cccnc12	24.5% (inactive)
O=C(NNc1nc2cc(F)cc(F)c2n2cccc12)c1ccncn1	32.2% (inactive)
Cc1ccc(/C=C/c2nn3c(-c4ccco4)nnc3s2)cc1	110% (inactive)
COC1=C(c2ccccc2)C(=O)C(OC)=C(c2ccccc2)C1=O	94.5% (inactive)
O=c1cc(-c2ccccc2)nc2sc(-c3c[nH]c4ccc(F)cc34)nn12	51.8% (inactive)
C#C[C@]1(O)CC[C@H]2[C@@H]3CC=C4c5sc(-c6cccc(F)c6)nc5CC[C@]4(C)[C@H]3CC[C@@]21C	93.2% (inactive)
COc1cc(/C=N/n2cnc3oc(-c4ccccc4)cc3c2=N)cc(CN2CCOCC2)c1O	51.4% (inactive)
COc1ccc2c(c1)c(-c1nn3c(=O)cc(-c4ccccc4)nc3s1)cn2C	55.3% (inactive)
O=C1[C@@H]2Cc3c([nH]c4ccccc34)[C@H](c3c(Cl)cccc3Cl)N2C(=O)CN1C1CCN(Cc2c(F)cccc2F)CC1	69% (inactive)
CCOC(=O)c1c(NCC(=O)Nc2ccc(Br)cc2)sc2c1CCCC2	36.5% (inactive)
O=C1c2c(c3c4cc(Br)ccc4[nH]c3c3ccc4ccccc4c23)C(=O)N1CCN1CCNCC1	84.1% (inactive)
CCN1C(=O)N(CC)C2C1NN=C1SC(c3ccccc3)=CC(=O)N12 (stereo not drawn)	38.8% (inactive)
Cc1cc(Cl)cc(NS(=O)(=O)c2ccc(-c3cnc(C4CC4)o3)cc2)c1	35.4% (inactive)
IP(CCCCCCCCCCSc1n(Cc2ccc3ccccc3c2)c(-c2ccccc2)c(-c2ccccc2)[n+]1Cc1ccc2ccccc2c1)(c1ccccc1)(c1ccccc1)c1ccccc1	-63.7% (active)
C#CCOc1ccc(/C=N/Nc2nc(-c3cc4cc(Br)cc(Br)c4oc3=O)cs2)cc1	96% (inactive)
COc1ccc(C(=O)c2c(N)c(C#N)cn2-c2cccc(OC)c2)cc1	39.2% (inactive)
C=CCn1c(SCC(=O)Nc2cccc(C(=O)/C=C/c3cc(OC)c(OC)c(OC)c3)c2)nc2ccccc2c1=O	29.5% (inactive)
O=S(=O)(Nc1ccc(C2CC2)cc1)c1ccc(-c2cnc(C3CC3)o2)cc1	72.5% (inactive)
CC(=O)Nc1ccc(C)c(Nc2cc(-c3ccc(-n4cccn4)cc3)[nH]n2)c1	82.8% (inactive)
CC1OC(O[C@@H]2[C@H](O)C(CO)OC(O[C@H]3COC(O[C@H]4CC[C@]5(C)[C@H]6CC[C@]78OC[C@@]9(CC[C@](C)(C=O)C[C@H]97)C(=O)C[C@@]8(C)[C@]6(C)CC[C@H]5C4(C)C)[C@@H](O)[C@@H]3O)[C@H]2OC2OC[C@@H](O)[C@@H](O)[C@@H]2O)[C@@H](O)[C@@H](O)[C@H]1O (stereo partly drawn)	79.7% (inactive)
N#Cc1c(NC(=O)c2ccc(F)c(Cl)c2)sc2c1CCC(=O)C2	-55.7% (active)
COc1cc(C(=O)c2cc(C(C)=O)c3c4ccccc4ccn23)cc(OC)c1OC	54.7% (inactive)
COc1ccc(-c2nc(SCC(C)C)nc(N/N=C\c3cccc([N+](=O)[O-])c3)c2C#N)cc1	30.5% (inactive)
CCOC(=O)CC(=O)CSC1=NC2C(NN1)N(C)C(=O)N2C (stereo not drawn)	75.3% (inactive)
CNC(=O)c1c(NC(=O)c2ccc(F)cc2F)sc2c1CCC(=O)C2	-16.6% (active)
COc1ccc(C2C(C#N)=C(N)Oc3c2sc2ccc(C)cc32)cc1 (stereo not drawn)	42.2% (inactive)
Clc1ccc(-c2csc(Nc3cccc(Nc4csc(-c5ccc(Cl)cc5)n4)c3)n2)cc1	64.2% (inactive)
O=C(Nc1ccc(-c2nc(-c3cccc(O)c3)c(-c3ccnc(Br)c3)[nH]2)cc1)c1ccccc1	30.2% (inactive)
COc1cc(CNC(=O)Cc2ccccc2[N+](=O)[O-])ccc1OCC(=O)NO	102% (inactive)
O=C1NC(=O)/C(=C/c2ccc(OCc3cc4ccccc4nc3Cl)cc2)S1	88.2% (inactive)
COc1ccc(/C=C/C(=O)c2nnn(-c3ccc(Br)cc3)c2C)cc1OC	83.3% (inactive)
Nc1c(C(=O)c2ccccc2)sc2nc(-c3cnccn3)cc(-c3cccs3)c12	92.7% (inactive)
Cc1cc(O)c2c(c1)C(=O)C(c1c(C)cc3c(c1O)C(=O)C=CC3=O)=CC2=O	62.8% (inactive)
CCCC(=O)NC(c1cccnc1)c1cc(C(C)=O)c2cccnc2c1O (stereo not drawn)	36.9% (inactive)

The measured values listed here are drawn from PubChem BioAssay (NCI).
